Source of measurements: ChEMBL document CHEMBL4725394

# test: AUC (0 to 8 hrs) in Sprague-Dawley rat at 1 mg/kg, po by high-performance LC-tandem MS analysis
# Type: ADME, organism-based
# Design: time < 8 hr, route oral, dose 1 mg/kg
# measurement_parameters: in vivo
property_label: AUC(0-t) at 8 h

Request: Could you tell me which AUC(0-t) at 8 h is on file for COc1ccc(C(=O)N(CC(C)(C)C)c2cccc(C)n2)c(N2CCC(COc3cc([C@@H](CC(=O)O)C4CC4)ccn3)CC2)c1 ?
Response: 127 ng·h/mL

---

# test: Cmax in ICR mouse at 1 mg/kg, po by high-performance LC-tandem MS analysis
# Assay type: ADME, organism-based
# Design: route oral, dose 1 mg/kg
# measurement_parameters: in vivo
property_label: Cmax (ng/mL)
Give bare numbers, in ng/mL.

Request: Give its Cmax value. Item: COc1ccc(C(=O)N(CC(C)(C)C)c2cccc(C)n2)c(N2CCC(COc3cc([C@@H](CC(=O)O)C4CC4)ccn3)CC2)c1
Response: 33.2

---

# test: Cytotoxicity in human HepG2 cells assessed as intracellular ATP content level at 30 uM by ATPlite-M assay relative to control
# Type: cell-based
# measurement_parameters: time 1 day, read-out: Activity
Kindly supply the reported viability at 24 h, 30 µM values for the records listed here.
Answers are plain numbers, in %.

Guide cases for viability at 24 h, 30 µM, answers given:
[[record]]
compound = "COc1ccc(CCC(C)(C)C)c(N2CCC(COc3cccc(C(CC(=O)O)C4CC4)c3)CC2)c1 (stereo not drawn)"
measured = 0.1

[[record]]
compound = "COc1ccc(C(C)C)c(N2CCC(COc3cccc(C(CC(=O)O)C4CC4)c3)CC2)c1 (stereo not drawn)"
measured = 0.1


Moving on to another compound below.
Request: // viability at 24 h, 30 µM lookup, key: COc1ccc(CCC(C)(C)O)c(N2CCC(COc3cccc(C(CC(=O)O)C4CC4)c3)CC2)c1 (stereo not drawn)
Response: 76.6

---

Kindly state Emax for each of the entries shown.
# assayed_target: Free fatty acid receptor 1 (Homo sapiens, UniProt O14842)
# Sequence (O14842 whole entry): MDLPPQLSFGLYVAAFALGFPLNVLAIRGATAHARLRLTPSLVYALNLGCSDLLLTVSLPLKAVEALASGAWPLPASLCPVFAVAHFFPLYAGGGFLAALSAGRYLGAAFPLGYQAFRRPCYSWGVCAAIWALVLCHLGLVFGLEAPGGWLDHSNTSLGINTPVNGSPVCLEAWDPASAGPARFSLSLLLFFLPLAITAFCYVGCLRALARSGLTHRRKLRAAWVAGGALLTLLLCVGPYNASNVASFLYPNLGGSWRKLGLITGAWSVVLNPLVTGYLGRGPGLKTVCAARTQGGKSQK
# test: Agonist activity at human GPR40 expressed in CHO cells incubated for 60 mins by FLIPR based Ca2+ mobilization assay relative to gamma-linolenic acid
# Assay type: functional, cell-based
# measurement_parameters: filed as agonist
Answers are plain numbers, in %.

Take a look at these entries with their results.
[[record]]
compound = "COc1ccc(C)c(N2CCC(COc3cccc(C(CC(=O)O)C4CC4)c3)CC2)c1 (stereo not given)"
measured = 113

[[record]]
compound = "COc1ccc(CCC(C)(C)O)c(N2CCC(COc3cccc(C(CC(=O)O)C4CC4)c3)CC2)c1 (stereo not given)"
measured = 109

[[record]]
compound = "COc1ccc(C(=O)N(C)c2ccccc2)c(N2CCC(COc3cccc(C(CC(=O)O)C4CC4)c3)CC2)c1 (stereo not given)"
measured = 101

[[record]]
compound = "CCOC(CC(=O)O)c1cccc(OCC2CCN(c3cc(OC)ccc3C(=O)N(CC(C)(C)C)c3cccc(C)n3)CC2)c1 (stereo not given)"
measured = 104


Request: What does the data say about its Emax? Entry: COc1ccc(CCC(C)(C)C)c(N2CCC(COc3cccc(C(CC(=O)O)C4CC4)c3)CC2)c1 (stereo not given)
Response: 110

---

# System: HepG2
# test: Cytotoxicity in human HepG2 cells assessed as caspase-3/7 activity level at 30 uM by Caspase-GloTM 3/7 assay relative to staurosporine
# Assay type: cell-based
# measurement_parameters: hepg2, 24 h, time 1 day
Record form. Attribute: Activity. Fill in for each entry.
One number for each entry, in %.

In the examples that follow, each entry is paired with its recorded Activity.
[[record]]
compound = "COc1ccc(F)c(N2CCC(COc3cccc(C(CC(=O)O)C4CC4)c3)CC2)c1 (stereo unspecified)"
units_of_measure = "%"
measured = -1.7

[[record]]
compound = "COc1ccc(C(C)C)c(N2CCC(COc3cccc(C(CC(=O)O)C4CC4)c3)CC2)c1 (stereo unspecified)"
units_of_measure = "%"
measured = 43.4

[[record]]
compound = "COc1ccc(CN(C)CC(C)C)c(N2CCC(COc3cccc(C(CC(=O)O)C4CC4)c3)CC2)c1 (stereo unspecified)"
units_of_measure = "%"
measured = -1.1

[[record]]
compound = "COc1ccc(CCCC(C)(C)C)c(N2CCC(COc3cccc(C(CC(=O)O)C4CC4)c3)CC2)c1 (stereo unspecified)"
units_of_measure = "%"
measured = 26

[[record]]
compound = "COc1ccc(CCC(C)(C)C)c(N2CCC(COc3cccc(C(CC(=O)O)C4CC4)c3)CC2)c1 (stereo unspecified)"
units_of_measure = "%"
measured = 67.3

[[record]]
compound = "COc1ccc(C(=O)N(C)c2ccccc2)c(N2CCC(COc3cccc(C(CC(=O)O)C4CC4)c3)CC2)c1 (stereo unspecified)"
units_of_measure = "%"
measured = 2.8


Provide reported Activity for each item, in the same order as listed.
1. COc1ccc(C)c(N2CCC(COc3cccc(C(CC(=O)O)C4CC4)c3)CC2)c1 (stereo unspecified)
2. COc1ccc(C(=O)N(C)c2ccccn2)c(N2CCC(COc3cccc(C(CC(=O)O)C4CC4)c3)CC2)c1 (stereo unspecified)

Response:
1: 8.3; 2: -1.1

---

# assayed_target: Free fatty acid receptor 1 (Homo sapiens, UniProt O14842)
# test: Agonist activity at human GPR40 expressed in CHO cells incubated for 60 mins by FLIPR based Ca2+ mobilization assay relative to gamma-linolenic acid
# Type: functional, cell-based
# measurement_parameters: filed as agonist
property_label: Emax (%)
One number for each entry, in %.

[[record]]
compound = "COCC(CC(=O)O)c1cccc(OCC2CCN(c3cc(OC)ccc3C(=O)N(CC(C)(C)C)c3cccc(C)n3)CC2)c1 (configuration not stated)"
property_label = "Emax"
measured = 104

[[record]]
compound = "COc1ccc(C(=O)N(CC(C)C)c2ccccn2)c(N2CCC(COc3cccc(C(CC(=O)O)C4CC4)c3)CC2)c1 (configuration not stated)"
property_label = "Emax"
measured = 107

[[record]]
compound = "COc1ccc(C(=O)N(CC(C)(C)C#N)c2ccccn2)c(N2CCC(COc3cccc(C(CC(=O)O)C4CC4)c3)CC2)c1 (configuration not stated)"
property_label = "Emax"
measured = 108

[[record]]
compound = "COc1ccc(C(=O)N(C)CC(C)(C)C)c(N2CCC(COc3cccc(C(CC(=O)O)C4CC4)c3)CC2)c1 (configuration not stated)"
property_label = "Emax"
measured = 107

[[record]]
compound = "COc1ccc(C(=O)N(CC(C)(C)C)c2cccc(C)n2)c(N2CCC(COc3cc(C(CC(=O)O)C4CC4)ccn3)CC2)c1 (configuration not stated)"
property_label = "Emax"
measured = 112


Your task in this section: give Emax for each listed record.
1. COc1ccc(C(=O)N(CC(C)(C)OC)c2ccccn2)c(N2CCC(COc3cccc(C(CC(=O)O)C4CC4)c3)CC2)c1 (configuration not stated)
2. COc1ccc(C(=O)N(CC(C)(C)C)c2cccc(C)n2)c(N2CCC(COc3cc([C@H](CC(=O)O)C4CC4)ccn3)CC2)c1

Response:
105
109

---

# assayed_target: Voltage-gated inwardly rectifying potassium channel KCNH2 (Homo sapiens, UniProt Q12809)
# Sequence (Q12809 whole entry): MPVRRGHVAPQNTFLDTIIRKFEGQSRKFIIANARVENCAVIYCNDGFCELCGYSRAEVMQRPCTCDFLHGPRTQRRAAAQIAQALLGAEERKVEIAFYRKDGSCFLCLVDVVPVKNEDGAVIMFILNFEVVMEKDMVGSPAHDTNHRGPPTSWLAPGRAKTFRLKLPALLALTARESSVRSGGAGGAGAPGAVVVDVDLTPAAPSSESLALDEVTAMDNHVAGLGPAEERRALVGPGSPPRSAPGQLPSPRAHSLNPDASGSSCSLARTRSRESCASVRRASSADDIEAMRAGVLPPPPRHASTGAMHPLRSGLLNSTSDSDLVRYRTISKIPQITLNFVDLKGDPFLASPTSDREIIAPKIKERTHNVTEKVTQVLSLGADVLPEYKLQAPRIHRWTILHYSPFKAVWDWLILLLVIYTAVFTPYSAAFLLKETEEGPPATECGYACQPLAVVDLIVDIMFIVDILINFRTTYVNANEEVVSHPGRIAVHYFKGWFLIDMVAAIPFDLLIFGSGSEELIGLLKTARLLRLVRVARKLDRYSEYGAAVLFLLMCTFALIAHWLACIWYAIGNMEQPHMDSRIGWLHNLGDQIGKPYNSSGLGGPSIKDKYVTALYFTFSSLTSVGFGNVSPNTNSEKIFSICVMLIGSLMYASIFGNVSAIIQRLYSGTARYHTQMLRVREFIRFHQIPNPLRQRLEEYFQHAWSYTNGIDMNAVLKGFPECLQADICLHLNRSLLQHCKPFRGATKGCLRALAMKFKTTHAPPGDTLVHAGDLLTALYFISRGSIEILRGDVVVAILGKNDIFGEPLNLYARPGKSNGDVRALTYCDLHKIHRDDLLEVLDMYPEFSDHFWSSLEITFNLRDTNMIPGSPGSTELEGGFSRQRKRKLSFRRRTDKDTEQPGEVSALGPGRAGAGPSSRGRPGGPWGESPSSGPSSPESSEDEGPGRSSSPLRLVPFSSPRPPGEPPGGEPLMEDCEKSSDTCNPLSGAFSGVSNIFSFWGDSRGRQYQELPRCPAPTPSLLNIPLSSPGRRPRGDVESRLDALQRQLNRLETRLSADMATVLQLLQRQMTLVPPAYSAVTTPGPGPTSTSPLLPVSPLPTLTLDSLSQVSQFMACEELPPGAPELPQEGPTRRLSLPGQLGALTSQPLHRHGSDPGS
pIC50: −log10 of the molar value.
property_label: pIC50

Request: Name the recorded pIC50 for COc1ccc(C(=O)N(CC(C)(C)C)c2cccc(C)n2)c(N2CCC(COc3cc([C@@H](CC(=O)O)C4CC4)ccn3)CC2)c1 .
Response: < 5.00

---

# test: Cmax in Wistar Kyoto N-STZ-1.5 rat model of streptozotocin-induced diabetes at 0.1 to 1 mg/kg, po followed by glucose challenge during 2-week-dosing study
# Format: ADME, organism-based
# Set-up: time 2 weeks, dose 0.1-1
# measurement_parameters: in vivo
property_label: Cmax (ng/mL)
Give bare numbers, in ng/mL.

[[record]]
structure_notation = "Cc1cc(OCCCS(C)(=O)=O)cc(C)c1-c1cccc(COc2ccc3c(c2)OC[C@H]3CC(=O)O)c1"
measured = 39.8


Proceed to the following item.
Request: Form field: reported Cmax of COc1ccc(C(=O)N(CC(C)(C)C)c2cccc(C)n2)c(N2CCC(COc3cc([C@@H](CC(=O)O)C4CC4)ccn3)CC2)c1
Response: 139

---

# test: Cytotoxicity in human HepG2 cells assessed as intracellular ATP content level at 30 uM by ATPlite-M assay relative to control
# Assay type: cell-based
# measurement_parameters: time 1 day, read-out: Activity
property_label: viability at 24 h, 30 µM (%)
Numbers only, in %.

Illustrative cases are given below, each with its answer.
[[record]]
molecule = "COc1ccc(C(=O)N(CC(C)(C)C)c2cccc(C)n2)c(N2CCC(COc3cc([C@@H](CC(=O)O)C4CC4)ccn3)CC2)c1"
units_of_measure = "%"
measured = 92.1

[[record]]
molecule = "COc1cccc(N2CCC(COc3cccc(C(CC(=O)O)C4CC4)c3)CC2)c1 (centres undefined)"
units_of_measure = "%"
measured = 92

[[record]]
molecule = "COc1ccc(C)c(N2CCC(COc3cccc(C(CC(=O)O)C4CC4)c3)CC2)c1 (centres undefined)"
units_of_measure = "%"
measured = 67.4

[[record]]
molecule = "COc1ccc(CCCC(C)(C)C)c(N2CCC(COc3cccc(C(CC(=O)O)C4CC4)c3)CC2)c1 (centres undefined)"
units_of_measure = "%"
measured = 0.1

[[record]]
molecule = "COc1ccc(C(=O)N(C)c2ccccc2)c(N2CCC(COc3cccc(C(CC(=O)O)C4CC4)c3)CC2)c1 (centres undefined)"
units_of_measure = "%"
measured = 79.3


Please state, for each entry, its recorded viability at 24 h, 30 µM.
1. COc1ccc(C(=O)N(C)c2ccccn2)c(N2CCC(COc3cccc(C(CC(=O)O)C4CC4)c3)CC2)c1 (centres undefined)
2. COc1ccc(F)c(N2CCC(COc3cccc(C(CC(=O)O)C4CC4)c3)CC2)c1 (centres undefined)
3. COc1ccc(C(=O)N(C)CC(C)(C)C)c(N2CCC(COc3cccc(C(CC(=O)O)C4CC4)c3)CC2)c1 (centres undefined)
4. COc1ccc(CN(C)CC(C)C)c(N2CCC(COc3cccc(C(CC(=O)O)C4CC4)c3)CC2)c1 (centres undefined)

Response:
[83.6, 72.7, 82.2, 80.7]
